Test system: MDA-MB-435 melanoma
Assay Text: NCI-60 one-dose screen, 48 h (100 = growth as untreated, 0 = no growth, -100 = all killed)
Applied Conditions: 10 µM unless noted
Protocol: Growth inhibition of the MDA-MB-435 human Melanoma tumor cell line is measured as a screen for anti-cancer activity. Cells are grown in 96 well plates and exposed to the test compound for 48 hours. Compounds are tested at a single concentration, which is 10^-5 M for most compounds. The reported endpoint is percent growth (GI% or GIPRCNT), where numbers from 0 - 100% represent growth inhibition, and numbers from -100% - 0 represent cell death. […]
The panel holds about 83,000 compounds, 20% with a hit somewhere; the sample as a whole holds those more often.
Property Measured: growth (%)

Compound	Assay Target	Property Measured	Measurement Units	Endpoint Value
Cc1cc(Nc2ccc(OCc3ccccc3)cc2)nc2cc(O)ccc12	MDA-MB-435 melanoma	growth	%	65.6
Nc1no[n+]([O-])c1-c1nnc2c(n1)-c1ccccc1C2=O	MDA-MB-435 melanoma	growth	%	18.8
COc1ccc2sc3c(NCCCN)nc4ccccc4c3c(=O)c2c1	MDA-MB-435 melanoma	growth	%	-79
O=Cc1cc2ccccc2nc1Nc1nccs1	MDA-MB-435 melanoma	growth	%	81.4
CCCCC1CCc2cccc3c(SCC(=O)N(C)c4ccc(Cl)cc4)cc[n+]1c23 (configuration not stated)	MDA-MB-435 melanoma	growth	%	103
O=NN(C(=O)NC1CCC(C(=O)O)CC1)C1CCC(C(=O)O)CC1 (configuration not stated)	MDA-MB-435 melanoma	growth	%	106
CCN(CC)c1cc(C)c2cc(NC(=O)c3cccc(OC)c3)ccc2n1	MDA-MB-435 melanoma	growth	%	74.2
CCN1C(=O)N(CC)C2C1NN=c1s/c(=C3\C(=O)N(CC(C)(C)C)c4ccccc43)c(=O)n12 (configuration not stated)	MDA-MB-435 melanoma	growth	%	-21.3
CCOC(=O)C1=C(C)c2ccc(OC)c(OC)c2C1	MDA-MB-435 melanoma	growth	%	112
CNC(=O)c1cc(Oc2ccc(CC(=O)Nc3cc(C(C)(C)C)cn3C)cc2)ccn1	MDA-MB-435 melanoma	growth	%	66.2
O=C(Nc1nc2c(s1)CCc1c-2c(Br)n(Cc2ccccc2)c1Br)c1ccccc1	MDA-MB-435 melanoma	growth	%	56.1
COc1cccc(C(=O)NC(c2ccc(C)cc2)c2cc(Cl)c3cccnc3c2O)c1 (configuration not stated)	MDA-MB-435 melanoma	growth	%	19.4
Cc1ccc(OCCCCCCNCCO)c(C)c1	MDA-MB-435 melanoma	growth	%	15.2
O=C(Nc1ccc(Cl)cc1F)c1cc(I)ccc1O	MDA-MB-435 melanoma	growth	%	18.5
CCN1C(=O)N(c2ccccc2)C2Nn3c(s/c(=C4\C(=O)N(C(C)C)c5ccccc54)c3=O)=NC21 (configuration not stated)	MDA-MB-435 melanoma	growth	%	99.7
CN(C)CCCNCc1ccc(-c2ccc(F)c(Cl)c2)o1	MDA-MB-435 melanoma	growth	%	-41.6
Cc1ccc(S(=O)c2ccc([N+](=O)[O-])c3nonc23)cc1 (configuration not stated)	MDA-MB-435 melanoma	growth	%	106
Nc1ccc(C2c3ccccc3Oc3ccccc32)cc1	MDA-MB-435 melanoma	growth	%	104
CCN1CCN(c2cc(C)c3cc(NC(=O)c4ccc(OC)c(OC)c4)ccc3n2)CC1	MDA-MB-435 melanoma	growth	%	-42
Cn1nc(C(C)(C)C)cc1NC(=O)Cc1ccc(/C=C2\C(=O)Nc3ccccc32)cc1	MDA-MB-435 melanoma	growth	%	56
Cc1cccc2c(=O)c3c(sc12)c(N1CCNCC1)nc1ccccc13	MDA-MB-435 melanoma	growth	%	62.5
CCOC(=O)C1=CN(C)C=C(C(=O)OCC)C1c1cc(Br)c(OCC)c(OC)c1	MDA-MB-435 melanoma	growth	%	15.6

---

Tested on: NCI-H522 lung
Assay Text: NCI-60 one-dose screen, 48 h
Applied Conditions: 10 µM unless noted
The panel holds about 83,000 compounds, 20% with a hit somewhere; the sample as a whole holds those more often. The source made the active and inactive calls. How the source made its calls: active means growth percent below 10; inactive means the rest.
Possible outcomes: active, inactive

Compound	Class
O=C(Nc1ccc(F)cc1F)c1cc(Br)ccc1O	active
COc1ccc(Nc2cc(C)nc(NCc3ccccc3)n2)cc1	inactive
Cc1cc2c(c(C)c1Cl)C(=O)/C(=C/c1ccco1)O2	inactive
O=c1c2cc(F)ccc2sc2c(NCCCNCCO)nc3ccc(Cl)cc3c12	inactive
C=CCN1C(=O)/C(=c2\sc3n(c2=O)NC2C(N=3)N(CC)C(=O)N2CC)c2ccccc21 (stereo unspecified)	inactive
O=C(Nc1ccc(Br)cc1F)c1cc(I)ccc1O	active
Clc1ccc(-c2nnc(COc3ccc(C4=NNC(c5ccco5)C4)cc3)o2)cc1 (stereo unspecified)	inactive
COc1ccc(-c2cc(=O)c3c(OC)c4ccoc4c(/C=C/C=O)c3o2)cc1	inactive
COc1ccc2[nH]c(O)c(N=NC(=O)c3oc4ccccc4c3C)c2c1	inactive
O=C(Nc1ccc(Br)cc1F)c1cc(Cl)ccc1O	active
COc1ccc(C2NCCc3c2[nH]c2ccccc32)cc1CN1CCN(c2ccc(F)cc2)CC1 (stereo unspecified)	inactive
COc1c(B(O)O)cccc1-c1nc2ccc3[nH]ncc3c2c2c1C1CCC2C1 (stereo unspecified)	inactive
Cc1ccc(S(=O)c2ccc([N+](=O)[O-])c3nonc23)cc1 (stereo unspecified)	active
CC(=O)c1ccc(Nc2nc(NCCO)nc(Nc3ccc(Cl)cc3)n2)cc1	inactive
Nc1nc(N)c2c(n1)NC1(C=C(O)c3ccccc31)C1=C(N2)c2ccccc2C1=O (stereo unspecified)	inactive
O=C(/C=C/c1ccc(Cl)cc1)c1ccc(Nc2nc(NCCO)nc(Nc3ccc(Cl)cc3)n2)cc1	inactive
CCOC(=O)c1cc2c(n1Cc1cccc(OC)c1)-c1oncc1CCC2	inactive
Nc1n[nH]c2ccc([C@@H]3Nc4ccc5[nH]ncc5c4[C@H]4[C@H]5CCC(C5)[C@H]43)cc12	active
O=C(Cc1ccccc1)NC(c1ccc(Cl)cc1)c1c(O)ccc2ccccc12 (stereo unspecified)	active
COc1ccc(/C=C2\N=C(c3ccccc3)N(c3ccc(-c4nc5ccc(C)cc5s4)cc3)C2=O)cc1	inactive
Nc1ccccc1-c1ccc(-c2ccc(Cl)cc2)c2c1[nH]c1ccccc12	inactive

---

System: PC-3 prostate
Assay Text: NCI-60 one-dose screen, 48 h (100 = growth as untreated, 0 = no growth, -100 = all killed)
Applied Conditions: 10 µM unless noted
The panel holds about 83,000 compounds, 20% with a hit somewhere; the sample as a whole holds those more often.

Compound	Measurement Units	growth
Nc1ccccc1-c1ccc(-c2ccc(Cl)cc2)c2c1[nH]c1ccccc12	%	14.1
CC(C)c1ccc(S(=O)(=O)NC(=O)NC2CCCC2)cc1	%	99.9
COc1ccc(OC)c(N(CCN2C(=O)c3ccccc3C2=O)C(=O)CCl)c1	%	31.9
Cc1cccc2c(=O)c3c(sc12)c(NCCN)nc1ccccc13	%	-42.9
CSc1nc2c(c(=O)n1C)N=C1c3ccccc3C(=O)C1C(c1ccccc1)N2 (stereo not given)	%	64.9
CC(C)Cn1c2c(c(=S)[nH]c1=O)CCC2	%	104
CN(O)c1nc(N(C)O)nc(N2CCOCC2)n1	%	58.9
COc1cc(/C=C/C(=O)c2ccc(Nc3nc(NCCO)nc(N4CCOCC4)n3)cc2)cc(OC)c1OC	%	31
O=C(Nc1ccc(Cl)cc1F)c1cc(F)ccc1O	%	3.1
COc1ccccc1N1CCN(C(CNS(=O)(=O)c2ccc(Cl)cc2)c2cccnc2)CC1 (stereo not given)	%	48.9
CCOC(=O)c1sc(-c2ccc(OS(=O)(=O)c3ccc(Br)s3)c(C=O)c2)nc1C	%	20.1
CN=c1ccc2nc3ccc(N)cc3sc-2c1	%	5.54
CCCC(c1nnnn1C1CCCCC1)N1CCN(C(=O)c2ccco2)CC1 (stereo not given)	%	54.2
CNC(=O)c1cc(Oc2ccc(CC(=O)Nc3cc(C(C)(C)C)cn3C)cc2)ccn1	%	75.9
O=C(Cc1ccccc1)NC(c1ccc(Cl)cc1)c1c(O)ccc2ccccc12 (stereo not given)	%	3.12
COc1cc([C@@H]2NC(=O)NC(C)=C2C(=O)Nc2nc(-c3ccc(Cl)cc3)cs2)ccc1O	%	88.9
COc1ccc(/C=C/C(=O)c2ccc(Nc3nc(NCCO)nc(Nc4ccc(Cl)cc4)n3)cc2)cc1	%	50.6
O=S(=O)(c1ccccc1)n1cc2c(c1-c1ccccc1)CCc1sc(Nc3ccccc3)nc1-2	%	69.8
COc1cc(C2CC(c3ccc(Nc4nc(NCCO)nc(N5CCOCC5)n4)cc3)=NN2c2cc(Cl)cc(Cl)c2)cc(OC)c1OC (stereo not given)	%	34.1
COc1c(B(O)O)cccc1-c1nc2ccc3n[nH]c(F)c3c2c2c1CCCC2	%	74
O=NN(Cc1cccnc1)C(=O)NC1CCCCC1	%	98.7
O=c1oc2ccc(I)cc2c(=O)n1-c1ccc(F)cc1F	%	3.58
COc1ccc(/C=C2\N=C(c3ccccc3)N(c3ccc(-c4nc5ccc(C)cc5s4)cc3)C2=O)cc1	%	63.1
NCCOc1ccccc1/C=C1\c2ccccc2-c2ccc([N+](=O)[O-])cc21	%	36.8
CCN1CCN(c2cc(C)c3cc(NC(=O)c4ccc(OC)c(OC)c4)ccc3n2)CC1	%	49.2
O=C(NCCCN1CCC(N2CCCCC2)CC1)C1=Cc2cc(Br)ccc2OC1	%	17.5
O=c1c2cc(F)ccc2sc2c(NCCN3CCCC3)nc3ccccc3c12	%	61
COc1cc(/C=C2\CN(C)C/C(=C\c3cc(CN4CCOCC4)c(O)c(OC)c3)C2=O)cc(CN2CCOCC2)c1O	%	60.8
CCC1=C[C@@H]2CN(C1)Cc1c([nH]c3ccccc13)[C@@](C(=O)OC)(c1cc3c(cc1OC)N(C)[C@H]1[C@@](O)(C(=O)OC)[C@H](OC(C)=O)[C@]4(CC)[C@@H]5C[C@@H]5CN5CC[C@]31[C@@H]54)C2	%	22.5
COc1ccc(/C=C2\SC(=Nc3ccccc3)NC2=O)cc1	%	-73.5
O=C1Nc2ccccc2/C1=C/c1cccs1	%	92.3
Cc1cccc2c(=O)c3c(sc12)c(NCCCNCCO)nc1ccccc13	%	43.6
O=Cc1c(OCc2cnnn2CC(=O)Nc2ccc(Br)cc2)ccc2ccccc12	%	90.2
O=C(CCc1nnc2sc(-c3ccc(Cl)cc3Cl)nn12)c1nc2ncccc2[nH]1	%	-38.6
COc1ccc(C2=Nn3c(NN)nnc3SC2)cc1	%	87.6
CC1(O)COCCCCOc2c(CN)cccc2NC(=O)c2nc(cnc2N)-c2ccc(cc2)S(=O)(=O)C(C)(C)C1 (stereo not given)	%	14
CCOc1cccc(/C=N\Nc2nc(=O)cc(C(=O)OC)s2)c1O	%	72.8
O=C(/C=C/c1ccc(C(F)(F)F)cc1)c1ccc(Nc2nc(NCCO)nc(Nc3ccc(Cl)cc3)n2)cc1	%	32.9
COc1cc(/C(C#N)=C/c2nc3c(N4CCOCC4)nc(Cl)nc3n2C)cc(OC)c1OC	%	10.6
COc1cc(C2C(C#N)=C(N)OC3=C2C(=O)c2ccccc2C3=O)cc(OC)c1O (stereo not given)	%	18.9

Cited source for all entries: PubChem BioAssay (NCI)
